Tested on: HCMV UL50-UL53 nuclear egress complex (human cytomegalovirus)
Assay: inhibitors of HCMV UL50-UL53 interaction, biochemical, HTRF (AID 1918969)
Conditions: normalized percent inhibition, stronger effect = higher value, concentration not given here
About 280 (0.15%) of roughly 190,000 compounds were called active. The list comes from a sample in which actives are over-represented; it also holds close analogues and randomly drawn compounds.
MEASUREMENT NAME: inhibition (%)
# unit: % | format: bare number

Observe how each entry below is paired with its result.
[
  {
    "COMPOUND": "O=C(Nc1c[nH]c(=O)[nH]c1=O)c1ccco1",
    "SYSTEM TESTED": "HCMV UL50-UL53 nuclear egress complex (human cytomegalovirus)",
    "inhibition (%)": -1.3
  },
  {
    "COMPOUND": "Cn1c2c(c3cc(C4CCCCC4)ccc31)CCCCC2=O",
    "SYSTEM TESTED": "HCMV UL50-UL53 nuclear egress complex (human cytomegalovirus)",
    "inhibition (%)": 1.4
  },
  {
    "COMPOUND": "Cc1ccc(C)c2c1NC(c1ccc(Br)cc1)C1CC=CC21 (stereo unspecified)",
    "SYSTEM TESTED": "HCMV UL50-UL53 nuclear egress complex (human cytomegalovirus)",
    "inhibition (%)": -3.3
  }
]

## Task // inhibition lookup, key: CCOCCCNC(=O)N1Cc2c(sc3c2CCCC3)-n2cccc2C1c1ccc(N(C)C)cc1 (stereo unspecified)
## Result -33.4

## Task Field entry: O=S(=O)(Nc1ccc(-c2ccc(N3CCCCC3)nn2)cc1)c1ccc(F)cc1F
## Result -38.3

## Task Field entry: COc1ccc(N(Cc2nc3ccccc3s2)S(=O)(=O)c2cccs2)cc1
## Result -24.9

* * *

Reported inhibition by item:
Tested on: HCMV UL50-UL53 nuclear egress complex (human cytomegalovirus)
Test: inhibitors of HCMV UL50-UL53 interaction, biochemical, HTRF (AID 1918969)
Conditions: normalized percent inhibition, stronger effect = higher value, concentration not given here
Out of some 190,000 compounds screened, about 280 (0.15%) were called active. The list comes from a sample in which actives are over-represented; it also holds close analogues and randomly drawn compounds.
# unit: % | format: bare number

[
  {
    "COMPOUND": "Cc1ccc(NC(=O)Cn2cnc3ccc(S(=O)(=O)N4CCC(C)CC4)cc3c2=O)cc1F",
    "SYSTEM TESTED": "HCMV UL50-UL53 nuclear egress complex (human cytomegalovirus)",
    "RESULT": -4.6
  },
  {
    "COMPOUND": "COc1cc(-c2noc(-c3ccccc3)n2)ccc1OCC(=O)Nc1ccc(F)cc1",
    "SYSTEM TESTED": "HCMV UL50-UL53 nuclear egress complex (human cytomegalovirus)",
    "RESULT": -31.7
  },
  {
    "COMPOUND": "CC(=O)N1c2ccc(S(=O)(=O)N3CCN(c4nc5ccccc5n5cccc45)CC3)cc2CC1C (stereo not given)",
    "SYSTEM TESTED": "HCMV UL50-UL53 nuclear egress complex (human cytomegalovirus)",
    "RESULT": -16.8
  }
]

## Task // inhibition lookup, key: CCCc1noc(-c2cc(S(N)(=O)=O)ccc2OC)n1
## Result 3.5

## Task Field entry: CC(C)CCNC(=O)C1(C)Cn2c(cc3ccccc32)C(=O)N1C1CC1 (stereo not given)
## Result -9.6
